assay_target: F876L mutant Androgen Receptor (AR-F876L) (Homo sapiens (Human), UniProt P10275, F877L)
Sequence (P10275 whole entry F877L): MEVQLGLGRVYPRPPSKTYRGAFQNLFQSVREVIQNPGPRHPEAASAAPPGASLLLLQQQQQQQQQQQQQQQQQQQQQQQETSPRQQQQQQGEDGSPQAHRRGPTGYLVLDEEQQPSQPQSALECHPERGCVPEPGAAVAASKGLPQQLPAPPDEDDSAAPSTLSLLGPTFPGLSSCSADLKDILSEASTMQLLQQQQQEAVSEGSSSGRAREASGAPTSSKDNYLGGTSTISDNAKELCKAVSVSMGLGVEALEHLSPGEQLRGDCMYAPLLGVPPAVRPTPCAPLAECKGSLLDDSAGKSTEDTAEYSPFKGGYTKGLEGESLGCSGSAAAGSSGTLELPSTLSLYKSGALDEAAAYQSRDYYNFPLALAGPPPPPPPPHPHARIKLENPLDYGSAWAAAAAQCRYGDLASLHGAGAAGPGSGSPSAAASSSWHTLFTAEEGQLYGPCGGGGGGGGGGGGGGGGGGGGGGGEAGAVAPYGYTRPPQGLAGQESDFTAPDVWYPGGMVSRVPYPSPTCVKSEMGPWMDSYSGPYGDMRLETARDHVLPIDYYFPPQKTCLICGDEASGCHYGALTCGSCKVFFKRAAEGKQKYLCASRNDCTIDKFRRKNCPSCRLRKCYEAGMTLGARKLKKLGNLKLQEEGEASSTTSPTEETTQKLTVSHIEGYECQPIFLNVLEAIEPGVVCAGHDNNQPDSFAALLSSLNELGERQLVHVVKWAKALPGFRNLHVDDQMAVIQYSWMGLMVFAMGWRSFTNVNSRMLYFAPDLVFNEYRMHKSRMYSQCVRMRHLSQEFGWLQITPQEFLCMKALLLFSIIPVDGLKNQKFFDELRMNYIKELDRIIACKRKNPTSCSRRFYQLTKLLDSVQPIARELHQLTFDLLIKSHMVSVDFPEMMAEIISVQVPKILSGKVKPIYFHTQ
method: LNCaP-AR-F876L ANT reporter assay (antagonist mode)
Type: cell-based
reported_conditions: antagonist mode; maximum % inhibition of R1881 control response over tested concentration range; read-out: LNCaP-AR-F876L ANT MAX % Inh
measurement_label: Emax (%)
Value expressed in %; do not type the unit.

Prompt: Given N#Cc1ncc(N2C(=O)C3(CCC3)N(c3ccc(CC4CCNCC4)cc3)C2=S)cc1C(F)(F)F [Cpd 234] , state its recorded Emax.
Completion: 102

Prompt: Please look up its Emax: CN1CC[C@@H](CNC(=O)c2ccc(N3C(=S)N(c4cnc(C#N)c(C(F)(F)F)c4)C(=O)C34CCC4)cc2F)C1 [Cpd 205]
Completion: 100

Origin of the recorded values: patent US10981926B2
